Test system: liver cancer (3 cell lines)
method notes: CellTiter-Glo Viability Assay, liver cancer
Type: cell-based
experimental setup: Homo sapiens, HepG2, read-out: Liver cancer, EC50 HEPG2
For each record, write down the corresponding EC50.
Give your result in nM as a bare value.

Tell me measured EC50 for `CN1CCN(c2cc(C(=O)Nc3cc4cc(-c5cnn(C)c5)ccc4cn3)ccn2)CC1` please. 309

Tell me measured EC50 for `CN1CCC(N(C)c2cc(C(=O)Nc3cc4cc(-c5cnn(C)c5)ccc4cn3)ccn2)CC1` please. 136

Tell me measured EC50 for `CN1CCN(C(=O)C(C)(C)c2ccc(C(=O)Nc3cn4cc(-c5ccncc5)ccc4n3)cc2)CC1` please. 3340

---

For each record, write down the corresponding EC50.
System: pancreatic cancer (8 cell lines)
method notes: CellTiter-Glo Viability Assay, pancreatic cancer
Type: cell-based
experimental setup: Homo sapiens, CAPAN-1; Capan1 cell line; inhibition of cancer cell proliferation; read-out: Pancreatic cancer, EC50 Capan1
Give your result in µM as a bare value.

Tell me measured EC50 for `CN(C)C1CCN(c2cc(C(=O)Nc3ncc4ccc(-c5cn(C)nn5)cc4n3)ccn2)CC1` please. 3.72

Tell me measured EC50 for `CN1CC=C(c2cc(C(=O)Nc3cc4cc(-c5cncc(NC(C)(C)C)n5)cnc4cn3)ccn2)CC1` please. 1.89

Tell me measured EC50 for `c1cncc(-c2ccc3[nH]nc(-c4cc5c(-c6cccnc6)cncc5[nH]4)c3c2)c1` please. 2.76

Tell me measured EC50 for `CN(C)CCOc1cc(C(=O)Nc2cc3cc(-c4cnn(C)c4)ccc3cn2)ccn1` please. 0.249

Tell me measured EC50 for `[2H]c1c([2H])c([2H])c(/C=C/C(=O)Nc2cc3cc(-c4cncn4C)ccc3cn2)c([2H])c1[2H]` please. 0.372

Tell me measured EC50 for `c1cc2cc(c1)-c1cncc3[nH]c(nc13)-c1n[nH]c3ccc(cc13)-c1cncc(c1)CNC2` please. 0.569

Tell me measured EC50 for `O=C(Nc1cncc(-c2ccc3[nH]nc(-c4cc5cnccc5[nH]4)c3c2)c1)C1CCCCC1` please. 0.761

Tell me measured EC50 for `CN1CCCCN(C)c2nccc3[nH]c(nc23)-c2n[nH]c3ccc(cc23)-c2cncc(c2)C1` please. 0.323

Tell me measured EC50 for `Cc1n[nH]c2ccc(-c3cncc(N[C@H]4CC[C@@H](N)CC4)n3)cc12` please. 0.498

Tell me measured EC50 for `Cc1n[nH]c2ccc(-c3cncc(N[C@H]4CC[C@H](O)CC4)n3)cc12` please. 0.353

Tell me measured EC50 for `Cc1cc2ncc(-c3ccc4cnc(NC(=O)c5ccnc(N6CCN(C)CC6)c5)cc4c3)cc2[nH]1` please. 0.95

Tell me measured EC50 for `CN1CCC(Sc2ccc3cnc(NC(=O)c4ccnc(SC5CCN(C)CC5)c4)cc3c2)CC1` please. 1.03

Tell me measured EC50 for `O=C(Nc1c[nH]nc1-c1nc2c(-c3cccc(F)c3)cncc2[nH]1)c1cccnc1` please. 0.103

Tell me measured EC50 for `CN1CCC2(CC1)CN(c1cc(C(=O)Nc3cc4cc(-c5cnn(C)c5CO)ccc4cn3)ccn1)C2` please. 0.81

Tell me measured EC50 for `CN(C)C1CN(c2cc(C(=O)Nc3cc4cc(-c5cnn(C)c5)ccc4cn3)ccn2)C1` please. 0.702
